Ref: PubChem BioAssay AID180

- System: BDF1 mice, Adenocarcinoma 755 s.c., tumor weight T/C
- measurementProtocol: NCI In Vivo Anticancer Drug Screen. Data for tumor model Adenocarcinoma 755 (subcutaneous) in B6D2F1 (BDF1) mice
- measurementConditions: endpoint: mean tumor weight; dose: 30.0 mg/kg/injection; schedule: Q01DX011 (ip); vehicle: carboxymethylcellulose (CMC); higher = larger tumour
measuredAttribute: T/C

As a guide, the following entries are already answered.
>>> obsvalue("O=c1[nH]c2cnc(Cl)nc2[nH]1")
"116 % of control"
>>> obsvalue("Nc1cnc(=O)[nH]c1N")
"92 % of control"
>>> obsvalue("Cn1c(N)nc2n[nH]nc2c1=O")
"105 % of control"
>>> obsvalue("Nc1[nH]c(=S)ncc1NC=O")
"90 % of control"
>>> obsvalue("O=c1[nH]c(=O)c2nc(Br)n(C3OC(CO)C(O)C3O)c2[nH]1 (stereo unspecified)")
"119 % of control"

Given the molecule Nc1nc2c(ccn2Cc2ccccc2)c(=O)[nH]1 , what is its reported T/C?
92 % of control

====

Attribute: T/C
- System: BDF1 mice, Adenocarcinoma 755 s.c., tumor weight T/C
- measurementProtocol: NCI In Vivo Anticancer Drug Screen. Data for tumor model Adenocarcinoma 755 (subcutaneous) in B6D2F1 (BDF1) mice
- measurementConditions: endpoint: mean tumor weight; dose: 75.0 mg/kg/injection; schedule: Q01DX011 (ip); vehicle: methylcellulose (MC); higher = larger tumour

Some solved cases for reference:
>>> obsvalue("C[C@@H]1C[C@H]2CC[C@H](O2)[C@H](C)C(=O)O[C@@H](C)C[C@@H]2CC[C@@H](O2)[C@@H](C)C(=O)O[C@H](C)C[C@H]2CC[C@H](O2)[C@H](C)C(=O)O[C@@H](C)C[C@@H]2CC[C@@H](O2)[C@@H](C)C(=O)O1")
"91 % of control"
>>> obsvalue("OCCn1cnc2c(=S)nc[nH]c21")
"74 % of control"
>>> obsvalue("Cc1ccc2c(c1)CCCN2C(=O)CCCl")
"40 % of control"
>>> obsvalue("Clc1ncnc2c1ncn2C1CCCO1 (stereo not given)")
"1 % of control"
>>> obsvalue("Nc1nc(SCc2ccc(Br)cc2)c2ncn(C3OC(CO)C(O)C3O)c2n1 (stereo not given)")
"5 % of control"
>>> obsvalue("Nc1nc(SCc2ccccc2)c2ncn(C3CCCCC3)c2n1")
"121 % of control"
>>> obsvalue("CS(=O)(=O)OCC(=O)N1CCN(C(=O)COS(C)(=O)=O)CC1")
"67 % of control"
>>> obsvalue("OCCNc1ncnc2c1ncn2C1OC(CO)C(O)C1O (stereo not given)")
"17 % of control"

Could you share which T/C value was measured for CC1CCN(C(=O)CCCl)c2ccccc21 (stereo not given) ?
71 % of control

I have this molecule here, O=C(CCCl)N1CCN(c2ccccc2)CC1 , and I need its recorded T/C.
61 % of control

====

- System: BDF1 mice, Adenocarcinoma 755 s.c., tumor weight T/C
- measurementProtocol: NCI In Vivo Anticancer Drug Screen. Data for tumor model Adenocarcinoma 755 (subcutaneous) in B6D2F1 (BDF1) mice
- measurementConditions: endpoint: mean tumor weight; dose: 100.0 mg/kg/injection; schedule: Q01DX011 (sc); vehicle: steriod suspending solution; higher = larger tumour
measuredAttribute: T/C

Use these answered entries as a reference point.
>>> obsvalue("CC1(O)CCC2C3CCC4=CC(=O)CCC4C3CCC21C (centres undefined)")
"76 % of control"
>>> obsvalue("c1ccc(CSc2ncnc3nc[nH]c23)cc1")
"2 % of control"
>>> obsvalue("CC(=O)N[C@H]1CC[C@H]2[C@@H]3CCC4=CC(=O)CC[C@]4(C)[C@H]3CC[C@]12C")
"89 % of control"

// switching to the query compound
Recorded T/C of CC(=O)[C@H]1[C@H](C)C[C@H]2[C@@H]3CCC4=CC(=O)CC[C@]4(C)[C@@]3(F)[C@@H](O)C[C@@]21C , please.
12 % of control
